Procedure Summary: Pharmacokinetic measurement in mouse, single sc dose 30 nmol/kg, plasma ELISA
Particulars: single sc dose 30 nmol/kg
Tag: True if measured Terminal t1/2 is not below 5 h, False if it is.

- Molecule: "MLC009: fusion polypeptide SEQ ID NO: 256 conjugated with Moiety A at 15K of Linker (conjugate, Moiety A conjugated at linker K15) HGEGTFTSDVSSYLEEQAAREFIAWLVRGGGGQEPGQEPGQEPGQKPGQEPGQEPGQEPGQEPGAQPGAQPARQGDHCPLGPGRCCRLHTVRASLEDLGWADWVLSPREVQVTMCIGACPSQFRAANLHAQIKTSLHRLRPDTVPAPCCVPASYNPMVLIQRTDTGVSLQTYDDLLARDCHCI"
  Label Value: "False"
- Molecule: "MLC074: fusion polypeptide SEQ ID NO: 369 conjugated with Moiety B at 41C of Linker (conjugate, Moiety B conjugated at linker C41) HGEGTFTSDVSSYLEEQAAKEFIAWLVRGGGGQEPGAQPGQEPGAQPGQEPGAQPGQEPGAQPGQEPGAQPCQEPGAQPGAQPGAQPGAQPGAQPGAQPGAQPGAQPGAQPARQGDHCPLGPGRCCRLHTVRASLEDLGWADWVLSPREVQVTMCIGACPSQFRAANLHAQIKTSLHRLKPDTVPAPCCVPASYNPMVLIQKTDTGVSLQTYDDLLAKDCHCI"
  Label Value: "True"
- Molecule: "MLC075: fusion polypeptide SEQ ID NO: 369 conjugated with Moiety C at 41C of Linker (conjugate, Moiety C conjugated at linker C41) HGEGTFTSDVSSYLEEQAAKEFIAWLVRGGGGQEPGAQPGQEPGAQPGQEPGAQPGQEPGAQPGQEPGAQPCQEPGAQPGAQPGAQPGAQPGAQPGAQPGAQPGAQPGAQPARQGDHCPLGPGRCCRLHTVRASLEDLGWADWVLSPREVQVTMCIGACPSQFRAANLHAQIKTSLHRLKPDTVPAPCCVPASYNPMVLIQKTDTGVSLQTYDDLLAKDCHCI"
  Label Value: "True"
- Molecule: "MLC017: fusion polypeptide SEQ ID NO: 264 conjugated with Moiety A at 55K of Linker (conjugate, Moiety A conjugated at linker K55) HGEGTFTSDVSSYLEEQAAREFIAWLVRGGGGQEPGAQPGQEPGAQPGQEPGAQPGQEPGAQPGQEPGAQPGQEPGAQPGAQPGAKPGAQPGAQPGAQPGAQPGAQPGAQPARQGDHCPLGPGRCCRLHTVRASLEDLGWADWVLSPREVQVTMCIGACPSQFRAANLHAQIKTSLHRLRPDTVPAPCCVPASYNPMVLIQRTDTGVSLQTYDDLLARDCHCI"
  Label Value: "True"
- Molecule: "MLC003: unconjugated GLP-1/GDF15 fusion protein (protein) HGEGTFTSDVSSYLEEQAAKEFIAWLVRGGGGQEPGQEPGQEPGQEPGQEPGQEPGQEPGQEPGAQPGAQPARQGDHCPLGPGRCCRLHTVRASLEDLGWADWVLSPREVQVTMCIGACPSQFRAANLHAQIKTSLHRLRPDTVPAPCCVPASYNPMVLIQRTDTGVSLQTYDDLLARDCHCI"
  Label Value: "False"
- Molecule: "MLC089: fusion polypeptide SEQ ID NO: 379 conjugated with Moiety B at 39C of Linker (conjugate, Moiety B conjugated at linker Cys39) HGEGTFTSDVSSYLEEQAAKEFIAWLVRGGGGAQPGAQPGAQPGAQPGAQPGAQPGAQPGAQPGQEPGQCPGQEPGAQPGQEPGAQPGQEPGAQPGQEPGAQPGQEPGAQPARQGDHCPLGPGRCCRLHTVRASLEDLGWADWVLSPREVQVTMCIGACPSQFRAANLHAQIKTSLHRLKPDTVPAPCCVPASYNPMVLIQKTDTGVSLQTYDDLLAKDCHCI"
  Label Value: "True"
- Molecule: "MLC093: fusion polypeptide SEQ ID NO: 381 conjugated with Moiety B at 33C of Linker (conjugate, Moiety B conjugated at linker Cys33) HGEGTFTSDVSSYLEEQAAKEFIAWLVRGGGGAQPGAQPGAQPGAQPGAQPGAQPGAQPGAQPCQEPGAQPGQEPGAQPGQEPGAQPGQEPGAQPGQEPGAQPGQEPGAQPARQGDHCPLGPGRCCRLHTVRASLEDLGWADWVLSPREVQVTMCIGACPSQFRAANLHAQIKTSLHRLKPDTVPAPCCVPASYNPMVLIQKTDTGVSLQTYDDLLAKDCHCI"
  Label Value: "True"
